# testProtocol: Contact angle of polypropylene glycol oil drop on surface-modified metal (Goniometer)
# Type: physicochemical
# runConditions: 0.05% surface modifier
Listed below: CONTACT ANGLES (At 5 Minutes) Modine Solder values for each entry.
Write the numeric value and append its unit.

# substanceSmiles, endpointValue
rows = [
    ("CCCCCCCCCCCC(=O)O", "117 °"),
]

// next entry
Return reported CONTACT ANGLES (At 5 Minutes) Modine Solder. Input compound: `CCCCCCCC/C=C\CCCCCCCC(=O)O`
52 °

###

# testProtocol: Contact angle of polypropylene glycol oil drop on surface-modified metal (Goniometer)
# Type: physicochemical
# runConditions: 0.02% surface modifier
measuredAttribute: CONTACT ANGLES (At 5 Minutes) Modine Solder (°)
Numbers only here, please. The scale is °.

Return reported CONTACT ANGLES (At 5 Minutes) Modine Solder. Input molecule: CCCCCCCC/C=C\CCCCCCCC(=O)O [oleic acid]
68
